Taken from ChEMBL document CHEMBL1122865.

- system_tested: D(1A) dopamine receptor (Rattus norvegicus) (UniProt P18901)
- Sequence (P18901 whole entry): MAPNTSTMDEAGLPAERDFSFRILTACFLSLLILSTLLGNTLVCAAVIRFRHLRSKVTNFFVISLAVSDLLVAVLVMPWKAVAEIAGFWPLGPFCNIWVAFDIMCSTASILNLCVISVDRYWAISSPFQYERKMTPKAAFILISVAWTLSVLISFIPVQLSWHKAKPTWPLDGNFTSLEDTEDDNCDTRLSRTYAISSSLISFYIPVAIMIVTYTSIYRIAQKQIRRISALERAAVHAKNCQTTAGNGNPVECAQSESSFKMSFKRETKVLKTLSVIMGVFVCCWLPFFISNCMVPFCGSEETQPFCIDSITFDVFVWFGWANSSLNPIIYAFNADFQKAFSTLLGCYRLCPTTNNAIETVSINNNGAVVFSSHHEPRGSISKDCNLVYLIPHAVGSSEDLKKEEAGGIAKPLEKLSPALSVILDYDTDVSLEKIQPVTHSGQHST
- measurement_description: Tested for its ability to stimulate rat caudate adenylate cyclase (Dopamine receptor D1) at 10 uM
Please go through the items and note down their Stimulation.
Answers are plain numbers, in %.

Worked cases, Stimulation given:
In [3]: df
Out[3]:
                            cpd_smiles                             system_tested  data_value
0   COc1ccc(CCNCCc2ccccc2)c2ccc(O)nc12  D(1A) dopamine receptor (Rattus norvegicus) (UniProt P18901)           0
1                 NCCc1cccc2nc(O)ccc12  D(1A) dopamine receptor (Rattus norvegicus) (UniProt P18901)           1
2  CCCN(CCC)CCc1ccc(O)c2[nH]c(=O)ccc12  D(1A) dopamine receptor (Rattus norvegicus) (UniProt P18901)           1
3              NCCc1ccc(O)c2nc(O)ccc12  D(1A) dopamine receptor (Rattus norvegicus) (UniProt P18901)          27

Query for D(1A) dopamine receptor (Rattus norvegicus) (UniProt P18901): what Stimulation does the record show for CCCN(CCC)CCc1cccc2nc(O)ccc12 ?
4
